B1: CPXM2 (parent)
chain: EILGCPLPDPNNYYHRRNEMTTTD

variants of: B1; test: protein stability index of a GFP-peptide fusion (GPS, HEK-293T) (PSI 1-6); higher = more stable; settings: c terminus: a fixed tail appended;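 further: lentivirally expressed fusions sorted by FACS into six bins by GFP to DsRed ratio, PSI derived from sequencing read proportions per bin multiplied by bin number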
Criterion: protein stability index meeting or surpassing 4. Met: satisfied. Not met: not satisfied.

C5G; not satisfied

Query :: Test whether the variant D24A records protein stability index of 4 or higher.
Result :: not satisfied

Query :: What do you get for Y13T ?
Result :: satisfied

Query :: What do you get for G4Y ?
Result :: not satisfied
